Reference source for all entries: patent US9474275B2

# CONDITION DESCRIPTION: pH 2.7
Marks after values point to notes of the source that are not given here.

MOLECULE | LogP
CC(C)C(C)NC(=C(C#N)C(=O)CC1CC1)c1cccnc1Cl (stereo not drawn) [Compound 11] | 3.55^[a]
CCCC(=O)C(C#N)=C(NC(C)c1ncc(C)s1)c1cccnc1Cl (racemic) [Compound 107] | 3.19^[a]
CCCC(=O)C(C#N)=C(NC(C)c1nccs1)c1cn(C)nc1C(F)F (stereo not drawn) [Compound 80] | 2.59^[a]

----------
# Tested on: Phytophthora infestans
# Format: in vivo
# CONDITION DESCRIPTION: tomato plants, preventive spray, 500 ppm of active ingredient, evaluated 7 days after inoculation; 0% = untreated control, 100% = no disease
Listing: efficacy of selected compounds

COMPOUND | efficacy
CC(NC(=C(C#N)C(=O)C1CC1)c1cn(C)nc1C(F)F)C1CC1 (stereo not drawn) [Compound 59] | 90%
CC=CC(=O)C(C#N)=C(NC(C)C(C)C)c1cccnc1Cl (stereo not drawn) [Compound 75] | 90%
CCCC(=O)C(C#N)=C(NC(C)C(C)OC)c1cccnc1Cl (mixture of isomers) [Compound 114] | 95%
CCCC(=O)C(C#N)=C(NC(C)c1nccs1)c1cccnc1Cl (stereo not drawn) [Compound 26] | 100%
CCC(=O)C(C#N)=C(NC(C)C(C)C)c1cn(C)nc1C(F)F (stereo not drawn) [Compound 23] | 93%
CCCC(=O)C(C#N)=C(NC(C)CC1CC1)c1cn(C)nc1C(F)F (racemic) [Compound 130] | 85%
CCCC(=O)C(C#N)=C(NC(C)c1c(F)cccc1F)c1cccnc1Cl (stereo not drawn) [Compound 106] | 75%
CC(C)C(C)NC(=C(C#N)C(=O)CC1CC1)c1cn(C)nc1C(F)F (stereo not drawn) [Compound 4] | 95%
CCCC(=O)C(C#N)=C(NC(C)c1nccs1)c1cn(C)nc1C(F)F (stereo not drawn) [Compound 80] | 95%

----------
# System: Phytophthora infestans
# Format: in vivo
# CONDITION DESCRIPTION: tomato plants, preventive spray, 500 ppm of active ingredient, evaluated 7 days after inoculation; 0% = untreated control, 100% = no disease
Listing: efficacy of selected molecules
METRIC NAME: efficacy

MOLECULE | REPORTED RESULT
CC(C)C(C)NC(=C(C#N)C(=O)CC1CC1)c1cccnc1Cl (stereo not drawn) | 100%
CC#CC(C)NC(=C(C#N)C(=O)CCC)c1cn(C)nc1C(F)F (racemic) | 75%
CCCCC(=O)C(C#N)=C(NC(C)C(C)C)c1cccnc1Cl (stereo not drawn) | 95%
COCC(=O)C(C#N)=C(NC(C)C1CC1)c1cn(C)nc1C(F)F (stereo not drawn) | 100%
CCCC(=O)C(C#N)=C(NC1(CC2CC2)CC1)c1cn(C)nc1C(F)F | 93%
CCCC(=O)C(C#N)=C(NC(C)C1CCC1)c1cccnc1Cl (racemic) | 95%
CCCC(=O)C(C#N)=C(NC(C)C1(C)CC1)c1cn(C)nc1C(F)F (racemic) | 93%
COCC(C)NC(=C(C#N)C(=O)CC1CC1)c1cn(C)nc1C(F)F (stereo not drawn) | 100%
CCCC(=O)C(C#N)=C(NC(C)COC)c1cn(C)nc1C(F)F (stereo not drawn) | 100%
